test: chemical genetic growth profiling, strain panel (AID 1159580);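 note: tested at 20 µM; growth read once vehicle control cultures reached saturation at 30 °C; 1 = growth at the plate median or of vehicle wells; lower values mean less growth of the strain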; conditions: S. cerevisiae deletion strains, growth OD, locus YLR221C, strain rsa3
Screen size: about 5,500 compounds; about 2,000 (36%) were called active. Not shown: some 18% with an inconclusive outcome. Cut-off read from the data, not from the text of the source: active = normalized growth mostly below about 0.91 (no sharp cut-off); inconclusive = no clear call, values can overlap the other calls; inactive = mostly above about 0.92. The list shows a part of the results.
Write down one outcome, taken from active, inactive

COc1cc(-c2coc3cc(O[C@@H]4O[C@H](CO)[C@@H](O)[C@H](O)[C@H]4O)c(OC)c(O)c3c2=O)cc(O)c1OC : inactive

Would you mind telling me which call this test gave `NCCc1cc(O)c(O)cc1O` ? inactive

Kindly provide the recorded test outcome for the following compound: CC(=O)OCC1=C(C(=O)O)N2C(=O)[C@@H](NC(=O)CCCC(N)C(=O)O)C2SC1 (some centres undefined) inactive

Could you kindly confirm the outcome this assay logged for `CCOc1ccc(C(=O)c2ccc(O)c(O)c2O)cc1` ? active

###

test: chemical genetic growth profiling, strain panel (AID 1159580);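 note: tested at 20 µM; growth read once vehicle control cultures reached saturation at 30 °C; 1 = growth at the plate median or of vehicle wells; lower values mean less growth of the strain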; conditions: S. cerevisiae deletion strains, growth OD, locus YDR162C, strain NBP2, active compounds read low
Screen size: about 5,500 compounds; about 2,000 (36%) were called active. Another 18% or so got no clear call; they are omitted. Some of the results follow.
Exam item: assign TRUE to entries whose normalized growth is below 1 and FALSE to entries at or above 1. Note that a value of exactly 1 receives FALSE.

COc1ccc([C@H]2COc3c(ccc(O)c3OC)C2)c(OC)c1O : TRUE
COc1ccc(C(=O)O)c(O)c1OC : FALSE
COc1cc(O)cc(OC)c1OC : FALSE
NC1CC1c1ccccc1 (configuration not stated) : FALSE

Please let me know if `CC1=C(O)C(=O)C=C2C1=CC=C1[C@@]2(C)CC[C@@]2(C)[C@@H]3C[C@](C)(C(=O)O)CC[C@]3(C)CC[C@]12C` shows normalized growth below 1. TRUE

Regarding `Cc1cc(=O)n(-c2ccccc2)n1C` , kindly confirm whether its normalized growth is beneath 1. FALSE

Lab note: normalized growth threshold 1. Does this compound come in strictly under it? `COc1ccc(C(=O)c2ccccc2)c(O)c1O` TRUE

###

# reported normalized growth; entries follow
assay: chemical genetic growth profiling, strain panel (AID 1159580);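 note: tested at 20 µM; growth read once vehicle control cultures reached saturation at 30 °C; 1 = growth at the plate median or of vehicle wells; lower values mean less growth of the strain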; details: S. cerevisiae deletion strains, growth OD, locus YDR162C, strain NBP2, active compounds read low
Screen size: about 5,500 compounds; about 2,000 (36%) were called active. Another 18% or so got no clear call; they are omitted. This is one part of the list.
I only need the number, thanks.

Cc1onc(-c2ccccc2Cl)c1C(=O)N[C@@H]1C(=O)N2[C@@H]1SC(C)(C)[C@@H]2C(=O)O : 1.02
CC1(C)C(=O)[C@@H]2O[C@@H]2[C@@]2(C)C1CC(=O)[C@]1(C)C2CC[C@@]2(C)[C@H](c3ccoc3)OC(=O)[C@H]3O[C@]321 (stereo partly specified) : 0.943
COc1c2occc2c(OC)c2c(=O)cc(C)oc12 : 1.02
CC(=O)O[C@H]1CC[C@]2(C)C3CC[C@@]4(C)C(CC5O[C@@]6(CCC(C)CO6)[C@@H](C)C54)C3CC[C@@H]2C1 (stereo partly specified) : 1.02
CCN(CC)CCNC(=O)c1cc(Cl)c(N)cc1OC : 1.01
COc1ccc2c(c1)[C@]13CCCC[C@H]1[C@H](C2)N(C)CC3 : 1.01
CC(=O)Oc1cccc(C(=O)O)c1OC(C)=O : 1.02
CC(=O)CC1CCCCN1 (stereo unspecified) : 1.03
CC1=NN(c2ccccc2)C(=O)C1 : 0.925
NC[C@H]1O[C@H](O[C@H]2[C@H](O)[C@@H](O[C@H]3O[C@H](CO)[C@@H](O)[C@H](N)[C@H]3O)[C@H](N)C[C@@H]2N)[C@H](N)C[C@@H]1O : 1.01

Kindly note the recorded normalized growth for `Cc1ccc(N(CC2=NCCN2)c2cccc(O)c2)cc1` , which is 0.976

The measured normalized growth associated with CC1=CC(=O)C2=C(C)CC(O)C3C(C)C(=O)OC3C12 (stereo unspecified) reads 0.989

// NCC1OC(OC2C(CO)OC(OC3C(O)C(N)CC(N)C3OC3OC(CO)C(O)CC3N)C2O)C(N)C(O)C1OC1OC(CO)C(O)C(O)C1O (stereo unspecified) : normalized growth value = 0.992
